- protocolDescription: Oral bioavailability in dog at 2 mg/kg administered as single dose
- Assay type: ADME, organism-based, Canis lupus familiaris
- experimentalConditions: in vivo
measuredAttribute: bioavailability

In: Which value of bioavailability has been reported for NC(=O)c1noc([C@H](CCCC2CCCCC2)CC(=O)NO)n1 in the records?
Out: 13%

* * *

- measuredTarget: Stromelysin-1 (Homo sapiens)
- Sequence (P08254 whole entry): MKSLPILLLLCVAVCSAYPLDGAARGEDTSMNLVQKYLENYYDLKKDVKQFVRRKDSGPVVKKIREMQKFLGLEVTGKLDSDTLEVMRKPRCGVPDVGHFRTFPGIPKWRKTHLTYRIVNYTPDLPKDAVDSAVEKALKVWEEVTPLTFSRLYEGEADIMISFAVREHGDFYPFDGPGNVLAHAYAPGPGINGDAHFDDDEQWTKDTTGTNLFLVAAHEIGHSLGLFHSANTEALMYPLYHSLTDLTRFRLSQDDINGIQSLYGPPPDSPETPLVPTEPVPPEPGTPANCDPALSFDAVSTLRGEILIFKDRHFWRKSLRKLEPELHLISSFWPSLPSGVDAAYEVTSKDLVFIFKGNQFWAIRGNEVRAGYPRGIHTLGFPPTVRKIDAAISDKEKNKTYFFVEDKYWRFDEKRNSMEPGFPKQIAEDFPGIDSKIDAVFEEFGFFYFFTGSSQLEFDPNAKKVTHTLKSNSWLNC
measuredAttribute: pIC50
# log scale: pIC50 equals minus log10 of the concentration in mol/L

In: # query: pIC50 of entry CN(C)C(=O)c1noc([C@H](CCCC2CCCCC2)CC(=O)NO)n1
Out: 4.55

* * *

- protocolDescription: Metabolic stability in human liver microsomes assessed as half life
- Type: ADME, Microsome
measuredAttribute: half-life
Express the reported value numerically, then name its unit.

In: What does the record list as half-life for NC(=O)c1noc([C@H](CCCC2CCCCC2)CC(=O)NO)n1 ?
Out: 19 min

* * *

- protocolDescription: Metabolic stability in dog liver microsomes assessed as half life
- Assay type: ADME, Canis lupus familiaris, Microsome
measuredAttribute: half-life (min)
Your answer is read as min, so omit the unit and give the number.

In: Reported half-life for NC(=O)c1noc([C@H](CCCC2CCCCC2)CC(=O)NO)n1 : what is it?
Out: 9

* * *

- protocolDescription: Drug level in pig skin assessed as steady state concentration at 0.9 mg/ml in 50% aqueous propylene glycol administered tropically after 24 hrs
- Type: ADME, tissue-based, Sus scrofa, Zone of skin
- experimentalConditions: topical or ocular, read-out: Drug uptake
measuredAttribute: concentration at 24 h (µM)
Write down the numeric answer in µM and omit the unit.

In: I would be grateful if you could share the reported concentration at 24 h for NC(=O)c1noc([C@H](CCCC2CCCCC2)CC(=O)NO)n1 .
Out: 10

* * *

// reported pIC50 for each item listed
- measuredTarget: Bone morphogenetic protein 1 (Homo sapiens, UniProt P13497)
- Sequence (P13497 whole entry): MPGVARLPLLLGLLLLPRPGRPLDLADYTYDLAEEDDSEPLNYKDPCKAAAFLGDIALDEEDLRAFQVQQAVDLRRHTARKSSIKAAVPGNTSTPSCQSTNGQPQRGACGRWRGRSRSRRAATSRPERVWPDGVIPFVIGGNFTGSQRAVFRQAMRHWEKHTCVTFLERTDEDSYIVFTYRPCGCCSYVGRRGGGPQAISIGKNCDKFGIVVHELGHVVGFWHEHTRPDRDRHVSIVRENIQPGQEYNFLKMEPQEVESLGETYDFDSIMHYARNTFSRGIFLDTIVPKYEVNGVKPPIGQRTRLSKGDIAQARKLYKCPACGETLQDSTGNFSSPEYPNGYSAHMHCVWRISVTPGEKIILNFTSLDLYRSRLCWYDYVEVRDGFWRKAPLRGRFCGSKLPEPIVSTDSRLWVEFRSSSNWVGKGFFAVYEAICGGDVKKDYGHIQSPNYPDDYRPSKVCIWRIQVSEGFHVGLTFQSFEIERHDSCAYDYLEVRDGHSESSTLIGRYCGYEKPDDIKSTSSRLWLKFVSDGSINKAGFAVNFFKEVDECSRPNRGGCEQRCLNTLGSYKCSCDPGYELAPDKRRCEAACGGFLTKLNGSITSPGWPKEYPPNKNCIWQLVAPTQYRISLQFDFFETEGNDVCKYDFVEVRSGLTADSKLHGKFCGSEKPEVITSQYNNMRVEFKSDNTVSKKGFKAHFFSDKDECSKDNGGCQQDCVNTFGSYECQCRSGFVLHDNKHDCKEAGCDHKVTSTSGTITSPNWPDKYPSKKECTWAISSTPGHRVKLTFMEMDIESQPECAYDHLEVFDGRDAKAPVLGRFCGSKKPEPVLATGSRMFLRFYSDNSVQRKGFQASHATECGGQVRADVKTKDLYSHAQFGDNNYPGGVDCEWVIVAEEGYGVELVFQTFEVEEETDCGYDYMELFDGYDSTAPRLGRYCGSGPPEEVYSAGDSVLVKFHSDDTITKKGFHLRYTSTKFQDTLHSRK
- protocolDescription: Inhibition of human procollagen C-proteinase expressed in CHO cells by fluorescence assay
- Format: cell-based
// pIC50: -log10(molar conc.)

chemicalSmiles | pIC50
Cc1oc([C@H](CCCC2CCCCC2)CC(=O)NO)nc1C(N)=O | 7.77
O=C(C[C@@H](CCCC1CCCCC1)c1nc(C(=O)NCc2ccccn2)no1)NO | 7.43

In: Return reported pIC50; argument: CN(Cc1ccccn1)C(=O)c1noc([C@H](CCCC2CCCCC2)CC(=O)NO)n1
Out: 7.40

In: For NC(=O)c1coc([C@H](CCCC2CCCCC2)CC(=O)NO)n1 then?
Out: 7.14

In: # repeat for O=C(C[C@@H](CCCC1CCCCC1)c1nc(C(=O)NCC2CC2)no1)NO
Out: 7.48

In: Please do the same for CN1CCN(C(=O)c2noc([C@H](CCCC3CCCCC3)CC(=O)NO)n2)CC1 as well.
Out: 7.27

In: And CCCNC(=O)c1noc([C@H](CCCC2CCCCC2)CC(=O)NO)n1 ?
Out: 7.49

In: # repeat for CC(C)NC(=O)c1noc([C@H](CCCC2CCCCC2)CC(=O)NO)n1
Out: 7.68

In: Now the compound O=C(C[C@@H](CCCC1CCCCC1)c1nc(C(=O)NCc2ccccc2)no1)NO
Out: 7.24

In: Now give it for CN(C)C(=O)c1coc([C@H](CCCC2CCCCC2)CC(=O)NO)n1 too.
Out: 7.35

In: // next record O=C(O)CNC(=O)c1noc([C@H](CCCC2CCCCC2)CC(=O)NO)n1
Out: 7.68

In: Moving on to the next compound: O=C(C[C@@H](CCCC1CCCCC1)c1nc(C(=O)N2CCOCC2)no1)NO
Out: 7.60

In: Another compound: Cc1oc([C@H](CCCC2CCCCC2)CC(=O)NO)nc1C(=O)N(C)C
Out: 7.77
